Sourced from patent US20240228482A1

# Target Or Test System: CBL-B (Homo sapiens, UniProt Q13191)
# Construct: GST
# Sequence (Q13191 whole entry): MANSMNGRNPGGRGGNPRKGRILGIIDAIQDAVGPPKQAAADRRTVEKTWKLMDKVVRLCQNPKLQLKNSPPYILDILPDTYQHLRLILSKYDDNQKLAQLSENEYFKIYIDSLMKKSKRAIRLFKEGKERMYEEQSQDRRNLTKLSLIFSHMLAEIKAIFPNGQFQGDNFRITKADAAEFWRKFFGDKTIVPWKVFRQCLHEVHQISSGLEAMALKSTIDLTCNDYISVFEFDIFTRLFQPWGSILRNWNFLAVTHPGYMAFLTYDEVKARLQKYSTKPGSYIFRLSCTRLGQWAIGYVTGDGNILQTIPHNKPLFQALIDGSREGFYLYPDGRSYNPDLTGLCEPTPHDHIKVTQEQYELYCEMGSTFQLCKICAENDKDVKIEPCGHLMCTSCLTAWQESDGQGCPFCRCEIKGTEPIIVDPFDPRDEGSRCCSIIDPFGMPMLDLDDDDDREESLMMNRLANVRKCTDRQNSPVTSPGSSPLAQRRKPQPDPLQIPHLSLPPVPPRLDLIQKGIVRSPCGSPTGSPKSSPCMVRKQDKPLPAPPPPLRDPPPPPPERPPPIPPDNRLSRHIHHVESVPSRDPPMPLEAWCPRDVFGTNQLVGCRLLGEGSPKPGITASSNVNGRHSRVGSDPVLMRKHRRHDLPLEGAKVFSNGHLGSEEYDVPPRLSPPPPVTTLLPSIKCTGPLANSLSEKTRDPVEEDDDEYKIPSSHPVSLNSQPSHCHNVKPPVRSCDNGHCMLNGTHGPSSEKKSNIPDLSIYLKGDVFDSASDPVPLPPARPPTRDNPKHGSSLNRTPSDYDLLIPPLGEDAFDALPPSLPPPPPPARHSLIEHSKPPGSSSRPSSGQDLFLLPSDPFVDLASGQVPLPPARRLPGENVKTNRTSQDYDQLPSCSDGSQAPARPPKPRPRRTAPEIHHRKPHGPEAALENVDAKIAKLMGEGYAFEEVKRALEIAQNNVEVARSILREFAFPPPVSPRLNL
# Assay Explanation: CBL-B TR-FRET IC50 screening (E1/E2 ubiquitination, Biotin-Ubiquitin, Anti GST-Tb donor / Streptavidin-d2 acceptor)
# Assay type: biochemical
# Measurement Parameters: CBL-B 10 nM final; 11-point titration from 100 uM; binned A-F; read-out: CBL-B TR-FRET activity IC50
pIC50: −log10 of the molar value.
Property Measured: pIC50

[[record]]
molecule = "CO[C@H]1CCCCN(Cc2cc(C(F)(F)F)c3cn(-c4cccc([C@H](c5nncn5C)C5CCC5)c4)c(=O)n3c2)C1 (single isomer, unassigned)"
assay_result = "> 7.00"

[[record]]
molecule = "COc1cc(-n2cc3c(C(F)(F)F)cc(CN4CCC[C@H](C)C4)cn3c2=O)cc(C2(Cc3nncn3C)COC2)c1"
assay_result = "> 7.00"

[[record]]
molecule = "Cc1c[nH]nc1[C@@H](c1cccc(-n2cc3c(C(F)(F)F)cc(CN4CCC[C@H](C)C4)cn3c2=O)c1)C1COC1"
assay_result = "< 5.00"

[[record]]
molecule = "C=Cc1cc(C(F)(F)F)c2cn(-c3cccc(C4(Cc5nncn5C)COC4)c3)c(=O)n2c1"
assay_result = "6.52 to 7.00"

[[record]]
molecule = "C[C@H]1CCCN(Cc2cc(C(F)(F)F)c3cn(-c4cccc([C@H](c5ncn[nH]5)C5CCC5)c4)c(=O)n3c2)C1"
assay_result = "< 5.00"

[[record]]
molecule = "Cc1c2c(C(F)(F)F)cccn2c(=O)n1-c1cccc(C(C)Cc2nncn2C)c1 (stereo not drawn)"
assay_result = "< 5.00"

[[record]]
molecule = "Cn1cnnc1C1(c2cccc(-n3cc4c(C(F)(F)F)cc(CN5CCC(F)CC5)cn4c3=O)c2)CC2(CC2)C1"
assay_result = "> 7.00"

[[record]]
molecule = "CN1CCCCC1c1cc(C(F)(F)F)c2cn(-c3cccc(C4(Cc5nncn5C)COC4)c3)c(=O)n2c1 (single isomer, unassigned) [Compound 187]"
assay_result = "6.52 to 7.00"

[[record]]
molecule = "C[C@@H]1CCCN1Cc1cc(C(F)(F)F)c2cn(-c3cccc([C@@H](c4nncn4C)C4CCC4)c3)c(=O)n2c1"
assay_result = "5.52 to 6.00"

[[record]]
molecule = "[2H]C([2H])([2H])n1cnnc1[C@H](c1cccc(-n2cc3c(C(F)(F)F)cc(CN4CCO[C@H](C)C4)cn3c2=O)c1)C1CCC1 (single isomer, unassigned)"
assay_result = "5.52 to 6.00"

[[record]]
molecule = "C[C@H]1CCCN(Cc2cc(C(F)(F)F)c3cn(-c4cccc([C@H](c5nncs5)C5CCC5)c4)c(=O)n3c2)C1 (single isomer, unassigned)"
assay_result = "> 7.00"

[[record]]
molecule = "Cc1cccn2c(=O)n(-c3cccc(C4(Cc5nncn5C)COC4)c3)cc12"
assay_result = "6.00 to 6.52"

[[record]]
molecule = "Cc1cn(C)nc1CC1(c2cccc(-n3cc4c(C(F)(F)F)cc(CN5CCC[C@H](C)C5)cn4c3=O)c2)COC1"
assay_result = "5.00 to 5.52"

[[record]]
molecule = "Cc1[nH]nnc1[C@H](c1cccc(-n2cc3c(C(F)(F)F)cc(CN4CCC[C@H](C)C4)cn3c2=O)c1)C1CCC1"
assay_result = "> 7.00"

[[record]]
molecule = "CC(C)C[C@H](c1cccc(-n2cc3c(C(F)(F)F)cc(CN4CCC[C@H](C)C4)cn3c2=O)c1)c1nncn1C (single isomer, unassigned)"
assay_result = "6.00 to 6.52"

[[record]]
molecule = "COC1CCN(Cc2cc(C(F)(F)F)c3cn(-c4cccc([C@H](c5nncs5)C5CCC5)c4)c(=O)n3c2)CC1"
assay_result = "6.00 to 6.52"

[[record]]
molecule = "C[C@H]1CCCN(Cc2cc(C(F)(F)F)c3cn(-c4cccc([C@@H](c5nccs5)C5CCC5)c4)c(=O)n3c2)C1 (single isomer, unassigned)"
assay_result = "< 5.00"

[[record]]
molecule = "Cn1cnnc1C(F)(F)[C@](C)(F)c1cccc(-n2cc3c(C(F)(F)F)cc(CN4CC[C@H](F)C4)cn3c2=O)c1"
assay_result = "6.52 to 7.00"

[[record]]
molecule = "CC(c1cc(C(F)(F)F)c2cn(-c3cccc(C4(Cc5nncn5C(F)F)COC4)c3)c(=O)n2c1)N1CCC(F)CC1 (single isomer, unassigned) [Compound 97]"
assay_result = "> 7.00"

[[record]]
molecule = "Cn1cnnc1C1(c2cccc(-n3cc4c(C(F)(F)F)cc(CN5CCC(C)(F)CC5)cn4c3=O)c2)CC2(CC2)C1"
assay_result = "> 7.00"

[[record]]
molecule = "C[C@H]1CCCN(Cc2cc(C(F)(F)F)c3cn(-c4cccc([C@]5(c6nncs6)C[C@@H](C)C5)c4)c(=O)n3c2)C1 (single isomer, unassigned)"
assay_result = "6.52 to 7.00"

[[record]]
molecule = "Cn1cnnc1CC1(c2cccc(-n3cc4c(C(F)(F)F)cc(C5(O)CCNCC5)cn4c3=O)c2)COC1"
assay_result = "6.52 to 7.00"

[[record]]
molecule = "Cn1cnnc1[C@]1(c2cccc(-n3cc4c(C(F)(F)F)cc(CN5CCC6(CC6)C5)cn4c3=O)c2)C[C@H](C)C1 (single isomer, unassigned)"
assay_result = "> 7.00"

[[record]]
molecule = "C[C@H]1CCCN(Cc2cc(C(F)(F)F)c3cn(-c4cccc([C@]5(c6nncs6)C[C@H](C)C5)c4)c(=O)n3c2)C1 (single isomer, unassigned)"
assay_result = "6.52 to 7.00"

